Readings of Assay (I) Glucagon [EC50] for the listed binders
- TESTED_ON: glucagon receptor (human, UniProt P47871 26-477)
- Sequence (P47871 26-477): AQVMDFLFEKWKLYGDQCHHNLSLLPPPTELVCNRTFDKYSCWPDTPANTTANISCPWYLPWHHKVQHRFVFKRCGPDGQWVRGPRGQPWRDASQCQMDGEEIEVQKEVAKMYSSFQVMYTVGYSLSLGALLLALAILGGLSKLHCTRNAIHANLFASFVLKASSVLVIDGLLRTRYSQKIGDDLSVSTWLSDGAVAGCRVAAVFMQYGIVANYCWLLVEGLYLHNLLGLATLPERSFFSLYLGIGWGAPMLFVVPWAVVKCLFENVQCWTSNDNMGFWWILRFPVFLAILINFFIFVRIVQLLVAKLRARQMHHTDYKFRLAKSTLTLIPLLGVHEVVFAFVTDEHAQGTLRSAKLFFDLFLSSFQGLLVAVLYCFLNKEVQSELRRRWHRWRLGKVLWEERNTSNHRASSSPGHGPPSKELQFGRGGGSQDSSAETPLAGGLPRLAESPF
- TEST_DETAILS: cell-based or functional assay
*1 amine or outer side, *2 acyl side, *3 side chain or, on linkers, in order; H or OH if unused. Where no end group is shown, it is not given here. Side-chain parts run from the residue outwards. The star is where a group is joined. C18 diacid = O=C(O)CCCCCCCCCCCCCCCCC(=O)*; C16 diacid = O=C(O)CCCCCCCCCCCCCCC(=O)*; γGlu = O=C(O)[C@H](CCC(=O)[*:2])N[*:1]; AEEA = NCCOCCOCC(=O)O
Output spec: scalar in pM, unitless text.

Take a look at these entries with their results.
-- ask # return recorded Assay (I) Glucagon [EC50] for entry HSQGTFTSDYSKYLDERRAQDFVK([γGlu-γGlu-AEEA-AEEA-γGlu-C16 diacid])WLLST
-- reply 17

-- ask # return recorded Assay (I) Glucagon [EC50] for entry HSQGTFTSDYSRYLDARRAQDFVK([γGlu-γGlu-γGlu-C16 diacid])WLLST
-- reply 16

-- ask # return recorded Assay (I) Glucagon [EC50] for entry HSQGTFTSDYSRYLDLRRAQDFVK([γGlu-γGlu-AEEA-AEEA-γGlu-C16 diacid])WLLST
-- reply 67

-- ask # return recorded Assay (I) Glucagon [EC50] for entry HSQGTFTSDYSRYLDARRAQDFVK([γGlu-γGlu-γGlu-γGlu-C18 diacid])WLLST
-- reply 62

-- ask # return recorded Assay (I) Glucagon [EC50] for entry HSQGTFTSDYSKYLESRRAQDFVK([γGlu-AEEA-AEEA-γGlu-C18 diacid])WLLNI
-- reply 1120

***
-- ask # return recorded Assay (I) Glucagon [EC50] for entry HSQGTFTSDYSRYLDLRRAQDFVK([γGlu-γGlu-γGlu-γGlu-C18 diacid])WLLST
-- reply 343

-- ask # return recorded Assay (I) Glucagon [EC50] for entry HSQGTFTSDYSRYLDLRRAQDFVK([γGlu-γGlu-AEEA-AEEA-γGlu-C16 diacid])WLLAT
-- reply 64

-- ask # return recorded Assay (I) Glucagon [EC50] for entry HSQGTFTSDYSKYLDVRRAQDFVK([γGlu-γGlu-AEEA-AEEA-γGlu-C18 diacid])WLLST
-- reply 307

-- ask # return recorded Assay (I) Glucagon [EC50] for entry HSQGTFTSDYSRYLDERRAQDFVK([γGlu-γGlu-AEEA-AEEA-γGlu-C16 diacid])WLLST
-- reply 29

-- ask # return recorded Assay (I) Glucagon [EC50] for entry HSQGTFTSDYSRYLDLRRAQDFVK([γGlu-γGlu-γGlu-C18 diacid])WLLST
-- reply 1320
